test system: Fibroblast; experiment: Multiplex assay against human fibroblast; format: toxicity, cell-based; conditions: 48 h, 1 µM, compound concentration 1 uM, replicate 2
Readout name: Population Tubulin-Different-Phenotype (%)

>>> readout_number("O=C(O)c1cc2ccccc2c(Cc2c(O)c(C(=O)O)cc3ccccc23)c1O [PAMOIC ACID]")
44
>>> readout_number("N[C@@]1(C(=O)O)CO[C@H]2[C@H](C(=O)O)[C@H]21 [LY-379268]")
59
>>> readout_number("Oc1c(CN2CCN(c3ccccn3)CC2)cc(Cl)c2cccnc12")
37
>>> readout_number("O=C(O)Cc1ccccc1Nc1c(Cl)cccc1Cl [DICLOFENAC]")
44
>>> readout_number("O=S(=O)(c1ccccc1)c1cnc2c(N3CCNCC3)cccc2c1 [INTEPIRDINE]")
54
>>> readout_number("Cl.Clc1ccc2nsnc2c1NC1=NCCN1 [TIZANIDINE HYDROCHLORIDE]")
56
>>> readout_number("CC[C@H]1OC(=O)[C@H](C)[C@@H](O[C@H]2C[C@@](C)(OC)[C@@H](O)[C@H](C)O2)[C@H](C)[C@@H](O[C@@H]2O[C@H](C)C[C@H](N(C)C)[C@H]2O)[C@@]2(C)CC(C)=C(O2)[C@H](C)[C@@H](O)[C@]1(C)O")
56
>>> readout_number("Cc1ccc(F)cc1C(=O)Nc1ccc(C(=O)N2Cc3cccn3Cc3ccccc32)c(Cl)c1 [LIXIVAPTAN]")
53
>>> readout_number("COc1cc(C(=O)N(CCCc2ccccc2)Cc2ccc(CC(=O)O)cc2)cc(OC)c1C")
40
>>> readout_number("C[C@H]1[C@H]2CC[C@H]3[C@@H]4CC=C5C[C@@H](N(C)C)CC[C@]5(C)[C@H]4CC[C@]23CN1C [CONESSINE]")
63
>>> readout_number("CN1CCN(c2nc3cc(C(F)(F)F)ccc3n3cccc23)CC1.O=C(O)/C=C\\C(=O)O.O=C(O)/C=C\\C(=O)O")
57
>>> readout_number("Cc1ccc(C(C)(O)c2nc3ccccc3s2)c(C)c1 (stereo not drawn)")
39
>>> readout_number("N#Cc1c(N)nc(SCc2csc(-c3ccc(Cl)cc3)n2)c(C#N)c1-c1ccc(OCCO)cc1 [CAPADENOSON]")
60
